ASSAY EXPLANATION: Retardation factor, Rf of the compound on silica gel GF containing 5% Na2HPO4 by chromatography
Format: physicochemical
MEASUREMENT LABEL: Rf
The reply should be a number, written without any unit.

Please review the entries below; each comes with its answer.
C[S+](CC[C@@H](N)C(=O)O)C[C@H](CO)O[C@H](CO)n1cnc2c(N)ncnc21 (stereo partly drawn) ... 0.46
Nc1ncnc2c1ncn2[C@@H](CO)O[C@@H](CO)CSC[C@@H](N)C(=O)O ... 0.63
Nc1ncnc2c1ncn2[C@@H](CO)O[C@@H](CO)C[S+]([O-])CC[C@@H](N)C(=O)O (stereo partly drawn) ... 0.6

[in] Data request, read-out Rf, for Nc1ncnc2c1ncn2[C@@H]1O[C@H](CSCC(N)C(=O)O)[C@@H](O)[C@H]1O (single isomer, unassigned)
[out] 0.74

[in] Likewise for `Nc1ncnc2c1ncn2[C@@H](CO)O[C@@H](CO)CSCC[C@H](N)C(=O)O` ?
[out] 0.65

[in] Likewise for `Nc1ncnc2c1ncn2[C@@H](CO)O[C@@H](CO)CSCC[C@@H](N)C(=O)O` ?
[out] 0.65

[in] Likewise for `Nc1ncnc2c1ncn2[C@@H]1O[C@H](CSCC[C@H](N)C(=O)O)[C@@H](O)[C@H]1O` ?
[out] 0.73
